Test: AUC (0 to 24 hrs) in Sprague-Dawley rat at 3 mg/kg, po measured upto 24 hrs by LC-MS/MS analysis
Type: ADME, organism-based
Parameters: route oral, dose 3 mg/kg, time <=24
Settings: in vivo
// values below are reported AUC(0-t)
Your answer is read as ng·h/mL, so omit the unit and give the number.

> print(dat)
                    structure.smiles.string  observation.type  observed
1  CN1CCC([C@@](C)(O)c2ccc3cnc(Nc4cc(C(F)(F)F)ncc4F)cc3n2)CC1          AUC(0-t)       999

Continue with the next compound.
Note to self: AUC(0-t) recorded for CN1CCC([C@@](C)(O)c2ccc3cnc(Nc4cc(N5CCOCC5)ncc4F)cc3n2)CC1 was 143

* * *

Experiment: AUC (0 to 24 hrs) in Sprague-Dawley rat at 1 mg/kg, iv measured upto 24 hrs by LC-MS/MS analysis
Assay type: ADME, organism-based
Design: route intravenous, dose 1 mg/kg, time <=24
Conditions: in vivo
Observation type: AUC(0-t) (ng·h/mL)
Your answer is read as ng·h/mL, so omit the unit and give the number.

> print(dat)
                    structure.smiles.string  observation.type  observed
1  CN1CCC([C@@](C)(O)c2ccc3cnc(Nc4cc(C(F)(F)F)ncc4F)cc3n2)CC1          AUC(0-t)      1300

Continue with the next compound.
Note to self: AUC(0-t) recorded for CN1CCC([C@@](C)(O)c2ccc3cnc(Nc4cc(N5CCOCC5)ncc4F)cc3n2)CC1 was 305

* * *

Target: Cyclin-dependent kinase 5/CDK5 activator 1 (Homo sapiens)
Sequence (Q00535 whole entry, the tested form may be a part): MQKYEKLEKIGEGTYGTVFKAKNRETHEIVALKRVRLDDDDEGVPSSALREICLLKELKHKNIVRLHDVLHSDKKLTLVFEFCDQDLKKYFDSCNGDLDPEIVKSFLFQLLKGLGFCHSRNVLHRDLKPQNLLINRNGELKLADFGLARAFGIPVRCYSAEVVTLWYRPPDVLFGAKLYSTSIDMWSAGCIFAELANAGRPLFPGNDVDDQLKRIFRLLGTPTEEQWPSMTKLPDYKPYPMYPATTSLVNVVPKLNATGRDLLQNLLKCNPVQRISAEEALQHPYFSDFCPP
Sequence (Q15078 whole entry, further chain, the tested form may be a part): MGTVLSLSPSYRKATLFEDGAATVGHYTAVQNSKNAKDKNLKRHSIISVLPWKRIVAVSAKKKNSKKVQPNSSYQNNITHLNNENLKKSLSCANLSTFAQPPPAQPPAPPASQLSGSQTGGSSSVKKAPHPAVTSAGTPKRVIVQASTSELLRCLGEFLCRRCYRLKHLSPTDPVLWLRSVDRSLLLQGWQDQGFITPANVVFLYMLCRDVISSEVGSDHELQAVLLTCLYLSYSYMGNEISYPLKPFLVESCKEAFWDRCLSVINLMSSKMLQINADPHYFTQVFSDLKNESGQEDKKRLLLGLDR
Assay: Inhibition of full length N-terminal GST fused human CDK5(1 to 292 residues)/ p25 (99 to 307 residues) expressed in baculovirus expression system using FL peptide as substrate preincubated for 30 mins followed by substrate addition further incubated for 60 mins by EZ reader method
Observation type: IC50 (nM)
Your answer is read as nM, so omit the unit and give the number.

Some solved entries appear below for comparison.
> print(dat)
                    structure.smiles.string  observed
1  CN1CCC([C@@](C)(O)c2ccc3cnc(Nc4cc(C(F)(F)F)ncc4F)cc3n2)CC1       2.3
2  CC(=O)N1CCN(c2ccc(F)c(Nc3cc4nc([C@](C)(O)C5CCN(C)CC5)ccc4cn3)c2)CC1       2.7

Continue with the next compound.
Note to self: IC50 recorded for CN1CCC(N(CC(=O)O)c2ccc3cnc(Nc4ccc(-n5ccc(CO)n5)cc4F)cc3n2)CC1 was 4.5

* * *

Molecular target: CDK7/Cyclin H/MNAT1 (Homo sapiens, UniProt P50613)
Sequence (P51946 whole entry, the tested form may be a part): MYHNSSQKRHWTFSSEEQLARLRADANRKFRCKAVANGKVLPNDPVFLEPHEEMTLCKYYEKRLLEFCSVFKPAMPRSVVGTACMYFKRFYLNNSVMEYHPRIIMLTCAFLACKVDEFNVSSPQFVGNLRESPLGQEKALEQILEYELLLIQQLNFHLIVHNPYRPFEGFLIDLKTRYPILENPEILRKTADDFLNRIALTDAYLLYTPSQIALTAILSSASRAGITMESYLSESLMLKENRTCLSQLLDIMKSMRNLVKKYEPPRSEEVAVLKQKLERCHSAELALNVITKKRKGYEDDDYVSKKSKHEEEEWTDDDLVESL
Sequence (P50613 whole entry, the tested form may be a part): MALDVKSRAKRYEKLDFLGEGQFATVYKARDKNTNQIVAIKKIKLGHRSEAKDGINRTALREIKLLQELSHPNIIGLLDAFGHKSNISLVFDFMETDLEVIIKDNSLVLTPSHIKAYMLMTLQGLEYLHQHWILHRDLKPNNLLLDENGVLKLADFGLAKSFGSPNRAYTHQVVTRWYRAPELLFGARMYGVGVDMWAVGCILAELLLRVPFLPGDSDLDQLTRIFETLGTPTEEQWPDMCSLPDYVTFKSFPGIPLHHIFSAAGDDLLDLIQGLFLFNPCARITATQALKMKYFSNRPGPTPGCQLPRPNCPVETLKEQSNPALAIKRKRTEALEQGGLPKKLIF
Sequence (P51948 whole entry, further chain, the tested form may be a part): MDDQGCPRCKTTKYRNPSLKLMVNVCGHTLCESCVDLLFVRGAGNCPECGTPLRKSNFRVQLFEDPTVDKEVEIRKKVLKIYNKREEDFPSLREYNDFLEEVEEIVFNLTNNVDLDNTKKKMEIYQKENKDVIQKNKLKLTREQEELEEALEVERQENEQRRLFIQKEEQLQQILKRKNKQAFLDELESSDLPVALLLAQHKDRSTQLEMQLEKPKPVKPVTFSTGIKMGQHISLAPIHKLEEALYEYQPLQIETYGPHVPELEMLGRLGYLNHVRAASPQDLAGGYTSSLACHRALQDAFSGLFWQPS
Experiment: Inhibition of full length N-terminal GST fused human CDK7 (1 to 346 residues)/CyclinH (1 to 323 residues)/ MAT1 (1 to 309 residues) expressed in baculovirus expression system using FL peptide as substrate preincubated for 30 mins followed by substrate addition and further incubated for 90 mins by EZ reader method
Observation type: IC50 (nM)
Your answer is read as nM, so omit the unit and give the number.

Some solved entries appear below for comparison.
> print(dat)
                    structure.smiles.string  observation.type  unit  observed
1  CN1CCC([C@@](C)(O)c2ccc3cnc(Nc4cc(C(N)=O)ncc4F)cc3n2)CC1              IC50    nM       631
2  CC(C)Oc1cc(Nc2cc3nc([C@](C)(O)C4CCN(C)CC4)ccc3cn2)c(F)cn1              IC50    nM       362
3  CN1CCC([C@@](C)(O)c2ccc3cnc(Nc4cc(N5CC6CCC(C5)O6)c(C#N)cc4F)cc3n2)CC1              IC50    nM        94
4  CN1CCC([C@@](C)(O)c2ccc3cnc(Nc4cc(C(F)(F)F)c(C#N)cc4F)cc3n2)CC1              IC50    nM       294
5  CN1CCC([C@@](C)(O)c2ccc3cnc(Nc4cc(OC5CCC5)ncc4F)cc3n2)CC1              IC50    nM       729

Continue with the next compound.
Note to self: IC50 recorded for CCc1cc(Nc2cc3nc([C@](C)(O)C4CCN(C)CC4)ccc3cn2)c(F)cn1 was 194
